Assign IC50 at 72 h to each entry below.
# Assay Explanation: MTT cytotoxicity assay on primary microglial cell cultures
# Format: cell-based, Wistar rats
# Condition Notes: Wistar, rat, mean of triplicate

Examples with answers:
>>> obs_value("C=C(C)[C@@H]1C/C=C(\\C(=O)OC)CC(=O)C[C@]2(C)CC(=O)[C@H](CC(=O)C1)O2")
"> 100 µg/mL"
>>> obs_value("C=C(C)[C@@H]1C/C=C2\\C(=O)O[C@@H](C[C@]3(C)CC(=O)[C@@H](CC(=O)C1)O3)[C@@H]2O [Compound 2, sinuleptolide]")
"> 100 µg/mL"
>>> obs_value("C=C(C)[C@@H]1CC(=O)[C@H]2[C@H](C1)[C@@H]1C(=O)O[C@@H]3C[C@@]4(C)O[C@H]2C(=O)[C@@H]4[C@H]13 [Compound 6, ineleganolide]")
"> 100 µg/mL"
>>> obs_value("CC/C(=C(\\c1ccccc1)c1ccc(OCCN(C)C)cc1)c1ccccc1 [Tamoxifen, reference compound]")
"3.6 µg/mL"
>>> obs_value("C=C(C)[C@@H]1C/C=C2\\C(=O)O[C@@H](C[C@]3(C)CC(=O)[C@H](CC(=O)C1)O3)[C@@H]2O [Compound 1, 5-epi-sinuleptolide]")
"> 100 µg/mL"

Proceed to the following item.
Problem: If you can, please state the reported IC50 at 72 h value of C=C(C)C1CCC23OC2C(CC2(C)CC(=O)C(CC(=O)C1)O2)OC3=O (stereo not drawn) [Compound 3, scabrolide D] .
Solution: > 100 µg/mL
